biological target: E-selectin (Homo sapiens, UniProt P16581); experiment: Binding affinity to E-selectin SCR2 domain (unknown origin) by isothermal titration calorimetry
Sequence (P16581 whole entry, the tested form may be a part): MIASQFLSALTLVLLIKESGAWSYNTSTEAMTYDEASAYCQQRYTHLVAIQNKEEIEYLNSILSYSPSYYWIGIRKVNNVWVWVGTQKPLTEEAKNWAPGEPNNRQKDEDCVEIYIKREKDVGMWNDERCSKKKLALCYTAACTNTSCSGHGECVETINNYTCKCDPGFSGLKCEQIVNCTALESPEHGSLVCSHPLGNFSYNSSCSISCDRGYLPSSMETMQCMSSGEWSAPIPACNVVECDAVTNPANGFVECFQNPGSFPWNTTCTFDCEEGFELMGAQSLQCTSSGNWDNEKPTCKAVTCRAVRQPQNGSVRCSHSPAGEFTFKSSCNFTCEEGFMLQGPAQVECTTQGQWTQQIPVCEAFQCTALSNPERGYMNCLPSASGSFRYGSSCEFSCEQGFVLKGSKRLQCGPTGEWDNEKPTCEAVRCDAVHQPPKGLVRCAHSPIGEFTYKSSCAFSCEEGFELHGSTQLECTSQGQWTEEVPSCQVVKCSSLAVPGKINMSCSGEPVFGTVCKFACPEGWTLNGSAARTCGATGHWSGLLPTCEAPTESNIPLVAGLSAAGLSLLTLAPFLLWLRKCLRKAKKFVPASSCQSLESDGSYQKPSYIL
PARAMETER: pKd
In plain terms, pKd is the concentration in mol/L turned into minus its base-10 logarithm.

pKd value, target or system E-selectin (Homo sapiens, UniProt P16581), for `C[C@@H]1O[C@@H](O[C@@H]2CCCC[C@H]2O[C@@H]2O[C@H](CO)[C@H](O)[C@H](O[C@@H](CC3CCCCC3)C(=O)O)[C@H]2O)[C@@H](O)[C@H](O)[C@@H]1O` : 4.22

Measured values drawn from ChEMBL document CHEMBL5579814 for this set.
